Sourced from patent US9345742B2

We begin with a simple list: items and their reported IC50.
Biological target: cathepsin D isolated from the human liver (Homo sapiens (Human), UniProt P07339)
Sequence (P07339 65-161): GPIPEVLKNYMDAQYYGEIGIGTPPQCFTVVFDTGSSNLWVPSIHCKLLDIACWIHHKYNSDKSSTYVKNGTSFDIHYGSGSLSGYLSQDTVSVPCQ
Sequence (P07339 169-412): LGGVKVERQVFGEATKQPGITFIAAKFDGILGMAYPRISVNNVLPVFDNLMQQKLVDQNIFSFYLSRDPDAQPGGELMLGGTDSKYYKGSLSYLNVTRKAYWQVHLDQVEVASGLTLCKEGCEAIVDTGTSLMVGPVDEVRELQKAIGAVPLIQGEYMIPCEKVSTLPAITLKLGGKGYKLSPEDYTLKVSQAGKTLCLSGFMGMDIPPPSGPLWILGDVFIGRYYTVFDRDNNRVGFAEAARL
Assay: In-vitro fluorescence assay for identification of cathepsin D inhibitors
Settings: cathepsin D 1.4 nM, pH 5.5; read-out: CatD assay IC50-
Numbered stars: 1 amine (or outer) side, 2 acyl side, 3 side chain; on linkers, the order of the positions; unused ones are H or OH. Square brackets hold non-standard residues; d marks the D form. Peptide text beside a SMILES is read from it. * marks the point of attachment. X1 = N[C@@H](CC(=O)[*:2])[C@H](Cc1ccccc1)N[*:1]; Isovaleryl = CC(C)CC(=O)*; Abu = CC[C@H](N)C(=O)O
Write the number in nM without appending the unit.

Compound | Experimental system | Units symbol | IC50
CC[C@H](C)[C@H](NC(=O)C[C@H](N)[C@H](Cc1ccccc1)NC(=O)[C@@H](NC(=O)[C@H](Cc1ccccc1)NC(=O)CC(C)C)C(C)C)C(=O)N[C@H](CO)C(C)C | cathepsin D isolated from the human liver (Homo sapiens (Human), UniProt P07339) | nM | 3.6
CC[C@H](C)[C@H](NC(=O)C[C@H](N)[C@H](Cc1ccccc1)NC(=O)[C@@H](NC(=O)[C@H](CC(C)C)NC(=O)CC(C)C)C(C)C)C(=O)NCC1CC1 | cathepsin D isolated from the human liver (Homo sapiens (Human), UniProt P07339) | nM | 400
CC[C@H](NC(=O)[C@H](CC(C)C)NC(=O)CC(C)C)C(=O)N[C@@H](Cc1ccccc1)[C@@H](N)CC(=O)N[C@H](C(=O)N[C@H](C(=O)OC)C(C)C)[C@@H](C)CC [Compound 4] (Isovaleryl-L[Abu][X1]IV-OMe) | cathepsin D isolated from the human liver (Homo sapiens (Human), UniProt P07339) | nM | 97
CC[C@H](C)[C@H](NC(=O)C[C@H](N)[C@H](Cc1ccccc1)NC(=O)[C@@H](NC(=O)Cc1cccc(OC(F)(F)F)c1)C(C)C)C(=O)N[C@H](C(=O)OC)C(C)C | cathepsin D isolated from the human liver (Homo sapiens (Human), UniProt P07339) | nM | 18

Consider the record given below.
[ask] Recorded IC50 of CC[C@H](C)[C@H](NC(=O)C[C@H](N)[C@H](Cc1ccccc1)NC(=O)[C@@H](NC(=O)[C@H](CC(C)C)NC(=O)CC(C)C)C(C)C)C(=O)N[C@@H](CC(C)C)C(=O)OC [Compound 14] (Isovaleryl-LV[X1]IL-OMe) , please.
[reply] 160
